The measured values listed here are drawn from the RNAGym collection of RNA variant scans (doi:10.1093/molbev/msab373).

B1: Azoarcus group I ribozyme (parent)
chain: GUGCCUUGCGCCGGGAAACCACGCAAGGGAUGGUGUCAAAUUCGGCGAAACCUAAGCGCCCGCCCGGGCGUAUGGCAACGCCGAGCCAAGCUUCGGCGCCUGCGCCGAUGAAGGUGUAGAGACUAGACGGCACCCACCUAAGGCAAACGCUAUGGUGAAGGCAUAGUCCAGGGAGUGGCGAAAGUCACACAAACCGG

variants of: B1; assay: reverse-splicing fitness (ratio to wild type); higher = more active; in vitro selection; Mg2+ level not given

VARIANT_SPEC	reverse-splicing fitness
C82U A111G A120C A145C U176C	0.0213
C82A A120C A145C C150A C169U U176G	0.00481
C82G A120U A145C C150A C169G U176A	0.0023
A111C A120G A145U C169U U176G	0.00716
C82U A111G A120G C169A	0.0106
C82U A111U A120G A145U C169A U176C	0.0101
C82A A120U A145C C150A U176G	0.00246
A111U A120C A145U C150U C169A U176A	0.0134
C82G A111G A120U A145C C169A U176A	0.00186
C82G A111C A120G A145G C150U	0.0132
C82A A111C A120U A145C C169A	0.00286
A111C A120U C169U U176A	0.0143
C82A A111G A120C C150G C169G	0.00727
C82A A120G A145U C150A C169A U176A	0.0132
C82A A120U C169G U176A	0.00261
C82A A120U A145G C150A U176A	0.0103
C82U A111G A145G C150A C169U U176G	0.00552
C82G A111G A120U A145U C150G C169A U176A	0.00415
C82U A111C A120C A145U C150A C169U	0.0101
C82A A111U C169G	0.00884
A120U A145G C150G C169G U176C	0.00575
C82G A145C C150U U176A	0.0881
C82U A111G A120C A145G C150U C169A U176C	0.0152
C82G A111C C150U U176G	0.0217
C82U A111U A120U C150A C169U U176G	0.00301
A111C A120C A145G C150A C169U	0.0324
C82G A111C A145G C150G U176A	0.0138
C82A A111C A120U A145G C150U C169A U176A	0.00915
C82A A111G A145U U176G	0.0692
A111U A120U A145U C169U U176G	0.00258
C82G A111U A145C C169A U176C	0.00791
A120C C150U U176C	0.596
C82G A111U C150U C169G	0.00914
A111C A120U A145C U176C	0.17
A145U C169A U176C	0.0523
C82G A111C A120G A145C C150G U176G	0.00269
A111C A120C C150A	0.0821
C82A A111G A120G A145U C150A C169G	0.00871
C82A A120C A145U C150G C169G U176A	0.00819
C82G A111G A120C A145C C150G C169A	0.00872
C82U A111C A120C A145G C150U C169A U176C	0.014
C82U A111C A120G A145C C150A C169G U176A	0.0204
C82A A111C A145G C150U C169A	0.0103
C82G A120C A145U U176C	0.0999
C82A A111G A120G C150A	0.0105
A111C A120U A145G C150U C169A U176A	0.00648
